Data credit: patent US20100260765A1

We begin with a simple list: items and their reported ELISA reading.
target: T1, soluble KDR Ig4-7 domain (human, UniProt P35968 328-764); assay: ELISA, KDR Ig4-7 coat (1:1 diln.), antibody 1 ug/mL
T1 construct: domain: Ig4-7 domain; also called b-KDRIg4-7-myc-his; Ig4-7 domain of KDR; not shown: myc-his tag of the pSecTag construct
T1 sequence (P35968 328-764): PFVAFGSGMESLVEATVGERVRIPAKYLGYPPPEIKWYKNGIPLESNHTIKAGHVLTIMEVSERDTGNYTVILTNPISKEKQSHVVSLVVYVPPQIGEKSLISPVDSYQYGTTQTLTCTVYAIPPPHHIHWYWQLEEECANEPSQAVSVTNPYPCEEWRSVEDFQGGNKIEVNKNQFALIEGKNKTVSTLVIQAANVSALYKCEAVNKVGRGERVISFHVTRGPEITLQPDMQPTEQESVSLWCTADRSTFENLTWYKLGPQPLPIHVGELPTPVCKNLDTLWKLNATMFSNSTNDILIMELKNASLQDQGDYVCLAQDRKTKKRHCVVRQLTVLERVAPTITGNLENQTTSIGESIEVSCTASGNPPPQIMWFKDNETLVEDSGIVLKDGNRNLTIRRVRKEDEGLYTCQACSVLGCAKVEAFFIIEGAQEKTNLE
measured-attribute: ELISA reading

[[record]]
binder = "22B8 (antibody, V domains shown, Fully human monoclonal antibody from a XenoMouse hybridoma (IgG2 or IgG4 strain), purified) VH: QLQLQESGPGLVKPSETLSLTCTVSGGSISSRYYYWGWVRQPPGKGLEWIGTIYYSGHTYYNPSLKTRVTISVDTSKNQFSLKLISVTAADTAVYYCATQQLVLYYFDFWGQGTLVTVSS VL: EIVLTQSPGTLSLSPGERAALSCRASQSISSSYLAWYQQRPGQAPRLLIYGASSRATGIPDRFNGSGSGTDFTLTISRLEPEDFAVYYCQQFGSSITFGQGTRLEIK"
value_observed = 0.08

[[record]]
binder = "29H3 (antibody, V domains shown, Fully human monoclonal antibody from a XenoMouse hybridoma (IgG2 or IgG4 strain), purified) VH: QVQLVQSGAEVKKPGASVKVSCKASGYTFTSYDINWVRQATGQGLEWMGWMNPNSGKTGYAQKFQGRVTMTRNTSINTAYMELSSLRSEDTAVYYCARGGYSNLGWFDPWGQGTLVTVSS VL: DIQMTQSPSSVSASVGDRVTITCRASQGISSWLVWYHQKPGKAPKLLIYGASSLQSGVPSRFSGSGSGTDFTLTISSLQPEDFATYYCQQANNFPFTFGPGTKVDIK"
value_observed = 3.02

